B1: RSPH3 (parent)
chain: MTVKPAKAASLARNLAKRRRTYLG

Variants of: B1
assay_notes: protein stability index of a GFP-peptide fusion (GPS, HEK-293T) (PSI 1-6); higher = more stable;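 also: lentivirally expressed fusions sorted by FACS into six bins by GFP to DsRed ratio, PSI derived from sequencing read proportions per bin multiplied by bin number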
condition: c terminus: a fixed tail appended

| seq_text | protein stability index |
| --- | --- |
| MTVKPLKAASLARNLAKRRRTYLG [A6L] | 1.63 |
| MTVKPAKAASLHRNLAKRRRTYLG [A12H] | 2.17 |
| MTVKPAKAASLARNLHKRRRTYLG [A16H] | 3.91 |
| MTVKPAKAASLARNLAKRRRYYLG [T21Y] | 2.13 |
| MTVKPAKAASLARNLAKRRRTYLE [G24E] | 3.54 |
| MTVKPAKAASLARNLAKRRRTTLG [Y22T] | 3.88 |
| MTVKPAKAASRARNLAKRRRTYLG [L11R] | 2.18 |
| MTVKPAKAASLARMLAKRRRTYLG [N14M] | 2.39 |
| MTVKPAKAASLARNLAKRKRTYLG [R19K] | 2.86 |
| MTVKPAKAQSLARNLAKRRRTYLG [A9Q] | 2.77 |
| MTVKPAKAASLARNLADRRRTYLG [K17D] | 3.25 |
| MTVKPAKAASLARNLAKMRRTYLG [R18M] | 2.38 |
| MTCKPAKAASLARNLAKRRRTYLG [V3C] | 3.73 |
| MTVKPAKAASLARNLAKRRRHYLG [T21H] | 2.79 |
| MTVKPAKAASLARNLAKHRRTYLG [R18H] | 2.91 |
| MTVAPAKAASLARNLAKRRRTYLG [K4A] | 2 |
| MTVKPAKAASLARNLAKNRRTYLG [R18N] | 2.31 |
| MTVKPAKAASLARNLQKRRRTYLG [A16Q] | 2.19 |
| MTVKPMKAASLARNLAKRRRTYLG [A6M] | 2.27 |
| MTVKPAKAASLARNLAKRRRTFLG [Y22F] | 3.25 |
| MTVKPAKAASLARNLAKRRRTYLF [G24F] | 1.97 |
| MTVKPAKAASLARNLAKRRRTYLR [G24R] | 3.46 |
| MTVKPAKAASLANNLAKRRRTYLG [R13N] | 3.63 |
| MTVKPAKAASLASNLAKRRRTYLG [R13S] | 2.8 |
| MTVKPAHAASLARNLAKRRRTYLG [K7H] | 3.82 |
| MTVKPAKAASLARNCAKRRRTYLG [L15C] | 3.14 |
